# Tested on: BT-549
# test-method-notes: Synergistic antiproliferative activity against human BT-549 cells at JQ1 and compound 1:1 ratio incubated for 72 hrs by MTT assay
# Type: functional, cell-based
# settings: BT-549, 72 h
IC50 listing for selected compounds.
Output spec: scalar in µM, unitless text.

Dear colleague, please send me the reported IC50 for `Cc1cc(C)c(CNC(=O)c2cc(-c3ccc(N4CCN(C(C)C)CC4)nc3)cc3c2cnn3C(C)C)c(=O)[nH]1` when you can.
4.73

Provide only the value of recorded IC50 for `CC[C@@H](C)n1cc(C)c2c(C(=O)NCc3c(C)cc(C)[nH]c3=O)cc(-c3ccc(N4CCNCC4)nc3)cc21`
2.05

----------
# Tested on: A549
# test-method-notes: Antiproliferative activity against human A549 cells incubated for 72 hrs by MTT assay
# Type: functional, cell-based
# settings: A549, 72 h
measure: IC50 (µM)
Numbers only here, please. The scale is µM.

Below, each entry is followed by its recorded IC50 result.
1) Cc1sc2c(c1C)C(c1ccc(Cl)cc1)=N[C@@H](CC(=O)OC(C)(C)C)c1nnc(C)n1-2 = 18.3
2) Cc1cc(C)c(CNC(=O)c2cc(-c3ccc(N4CCN(C(C)C)CC4)nc3)cc3c2cnn3C(C)C)c(=O)[nH]1 = 16.1

Give a short answer stating reported IC50 for `Cc1cc(C)c(CNC(=O)c2cc(N3CCC4(CCN(C(=O)C[C@@H]5N=C(c6ccc(Cl)cc6)c6c(sc(C)c6C)-n6c(C)nnc65)C4)CC3)cc3c2cnn3C(C)C)c(=O)[nH]1` .
17.3

----------
# measurement-target: Bromodomain-containing protein 4 (Homo sapiens)
# test-method-notes: Inhibition of BRD4 BD1 (unknown origin) incubated for 15 mins by TR-FRET method
Listed next: entries and their corresponding IC50.
Please give a number only; it is taken to be in µM.

A selection of reference data follows.
1) Cc1cc(C)c(CNC(=O)c2cc(-c3ccc(NC(=O)CCCNC(=O)C[C@@H]4N=C(c5ccc(Cl)cc5)c5c(sc(C)c5C)-n5c(C)nnc54)cc3)cc3c2cnn3C(C)C)c(=O)[nH]1 = 0.137
2) Cc1cc(C)c(CNC(=O)c2cc(-c3ccc(NC(=O)CCCCNC(=O)C[C@@H]4N=C(c5ccc(Cl)cc5)c5c(sc(C)c5C)-n5c(C)nnc54)cc3)cc3c2cnn3C(C)C)c(=O)[nH]1 = 0.055
3) Cc1cc(C)c(CNC(=O)c2cc(-c3ccc(CNC(=O)C[C@@H]4N=C(c5ccc(Cl)cc5)c5c(sc(C)c5C)-n5c(C)nnc54)cc3)cc3c2cnn3C(C)C)c(=O)[nH]1 = 0.259

Fill in IC50 for record `Cc1cc(C)c(CNC(=O)c2cc(NCCCCCCNC(=O)C[C@@H]3N=C(c4ccc(Cl)cc4)c4c(sc(C)c4C)-n4c(C)nnc43)cc3c2cnn3C(C)C)c(=O)[nH]1`
0.138

Write down IC50 measured for item `Cc1cc(C)c(CNC(=O)c2cc(NCCCCNC(=O)C[C@@H]3N=C(c4ccc(Cl)cc4)c4c(sc(C)c4C)-n4c(C)nnc43)cc3c2cnn3C(C)C)c(=O)[nH]1`
0.216

----------
# Test system: HCT-116
# test-method-notes: Antiproliferative activity against human HCT-116 cells incubated for 72 hrs by MTT assay
# Assay type: functional, cell-based
# settings: HCT-116, 72 h
measure: pIC50
Please note pIC50 is a logarithmic value: minus log10 of concentration in mol/L. Answer with that number alone.

1) Cc1cc(C)c(CNC(=O)c2cc(-c3ccc(NC(=O)CNC(=O)C[C@@H]4N=C(c5ccc(Cl)cc5)c5c(sc(C)c5C)-n5c(C)nnc54)cc3)cc3c2cnn3C(C)C)c(=O)[nH]1 = 5.54

Next, consider the following compound.
Report pIC50 for `Cc1cc(C)c(CNC(=O)c2cc(NCCCCCCNC(=O)C[C@@H]3N=C(c4ccc(Cl)cc4)c4c(sc(C)c4C)-n4c(C)nnc43)cc3c2cnn3C(C)C)c(=O)[nH]1`
5.72

----------
Here, each record is paired with measured IC50 data.
# Test system: HCT-116
# test-method-notes: Antiproliferative activity against human HCT-116 cells incubated for 72 hrs by MTT assay
# Type: functional, cell-based
# settings: HCT-116, 72 h
Could you give me the number in µM? Just the number is fine.

1) Cc1sc2c(c1C)C(c1ccc(Cl)cc1)=N[C@@H](CC(=O)OC(C)(C)C)c1nnc(C)n1-2 = 3.07

// next item, IC50 requested
Give the reported IC50 for this compound. `Cc1cc(C)c(CNC(=O)c2cc(N3CCC4(CCN(C(=O)C[C@@H]5N=C(c6ccc(Cl)cc6)c6c(sc(C)c6C)-n6c(C)nnc65)C4)CC3)cc3c2cnn3C(C)C)c(=O)[nH]1`
2.23

----------
Listed here are molecules together with their documented pIC50.
# System: HCT-116
# test-method-notes: Antiproliferative activity against human HCT-116 cells incubated for 72 hrs by MTT assay
# Assay type: functional, cell-based
# settings: HCT-116, 72 h
Remember the convention: pIC50 equals -log10 of concentration in molar.

Would you please look over these solved cases?
1. Cc1cc(C)c(CNC(=O)c2cc(N3CCC(CNC(=O)C[C@@H]4N=C(c5ccc(Cl)cc5)c5c(sc(C)c5C)-n5c(C)nnc54)CC3)cc3c2cnn3C(C)C)c(=O)[nH]1 = 5.25
2. Cc1cc(C)c(CNC(=O)c2cc(NCCCCCNC(=O)C[C@@H]3N=C(c4ccc(Cl)cc4)c4c(sc(C)c4C)-n4c(C)nnc43)cc3c2cnn3C(C)C)c(=O)[nH]1 = 5.73
3. Cc1cc(C)c(CNC(=O)c2cc(-c3ccc(NC(=O)CCCCNC(=O)C[C@@H]4N=C(c5ccc(Cl)cc5)c5c(sc(C)c5C)-n5c(C)nnc54)cc3)cc3c2cnn3C(C)C)c(=O)[nH]1 = 5.20

For the next question, use this molecule.
Note pIC50 for the molecule shown: `Cc1cc(C)c(CNC(=O)c2cc(-c3ccc(CNC(=O)C[C@@H]4N=C(c5ccc(Cl)cc5)c5c(sc(C)c5C)-n5c(C)nnc54)cc3)cc3c2cnn3C(C)C)c(=O)[nH]1`
4.94

----------
Parameter: IC50. Scope: all listed entries.
# Test system: A549
# test-method-notes: Antiproliferative activity against human A549 cells incubated for 72 hrs by MTT assay
# Type: functional, cell-based
# settings: A549, 72 h
Value expressed in µM; do not type the unit.

Some solved entries appear below for comparison.
1. CC[C@@H](C)n1cc(C)c2c(C(=O)NCc3c(C)cc(C)[nH]c3=O)cc(-c3ccc(N4CCNCC4)nc3)cc21 = 18.6
2. Cc1cc(C)c(CNC(=O)c2cc(NCC3CCN(C(=O)C[C@@H]4N=C(c5ccc(Cl)cc5)c5c(sc(C)c5C)-n5c(C)nnc54)CC3)cc3c2cnn3C(C)C)c(=O)[nH]1 = 4.58

For the next question, use this compound.
Provide A549 IC50 reading for `Cc1cc(C)c(CNC(=O)c2cc(N3CCC(CNC(=O)C[C@@H]4N=C(c5ccc(Cl)cc5)c5c(sc(C)c5C)-n5c(C)nnc54)CC3)cc3c2cnn3C(C)C)c(=O)[nH]1` .
8.93

----------
Quick reference for IC50 among some compounds
# Tested on: BT-549
# test-method-notes: Antiproliferative activity against human BT-549 cells incubated for 72 hrs by MTT assay
# Type: functional, cell-based
# settings: BT-549, 72 h

Some solved cases for reference:
1. CC[C@@H](C)n1cc(C)c2c(C(=O)NCc3c(C)cc(C)[nH]c3=O)cc(-c3ccc(N4CCNCC4)nc3)cc21 = 9.23 µM
2. Cc1cc(C)c(CNC(=O)c2cc(N3CCN(C(=O)C[C@@H]4N=C(c5ccc(Cl)cc5)c5c(sc(C)c5C)-n5c(C)nnc54)CC3)cc3c2cnn3C(C)C)c(=O)[nH]1 = 3.87 µM
3. Cc1cc(C)c(CNC(=O)c2cc(NCCCNC(=O)C[C@@H]3N=C(c4ccc(Cl)cc4)c4c(sc(C)c4C)-n4c(C)nnc43)cc3c2cnn3C(C)C)c(=O)[nH]1 = 11.5 µM
4. Cc1cc(C)c(CNC(=O)c2cc(N3CCC(CNC(=O)C[C@@H]4N=C(c5ccc(Cl)cc5)c5c(sc(C)c5C)-n5c(C)nnc54)CC3)cc3c2cnn3C(C)C)c(=O)[nH]1 = 3.2 µM
5. Cc1cc(C)c(CNC(=O)c2cc(-c3ccc(N4CCN(C(=O)C[C@@H]5N=C(c6ccc(Cl)cc6)c6c(sc(C)c6C)-n6c(C)nnc65)CC4)nc3)cc3c2cnn3C)c(=O)[nH]1 = 5.13 µM

Identify measured IC50 corresponding to `Cc1cc(C)c(CNC(=O)c2cc(NCC3CCN(C(=O)C[C@@H]4N=C(c5ccc(Cl)cc5)c5c(sc(C)c5C)-n5c(C)nnc54)CC3)cc3c2cnn3C(C)C)c(=O)[nH]1`
2.12 µM

Query IC50 for `Cc1cc(C)c(CNC(=O)c2cc(-c3ccc(NC(=O)C[C@@H]4N=C(c5ccc(Cl)cc5)c5c(sc(C)c5C)-n5c(C)nnc54)cc3)cc3c2cnn3C(C)C)c(=O)[nH]1`
> 20 µM

Hello, please tell me recorded IC50 for this one: `Cc1cc(C)c(CNC(=O)c2cc(-c3ccc(NC(=O)CNC(=O)C[C@@H]4N=C(c5ccc(Cl)cc5)c5c(sc(C)c5C)-n5c(C)nnc54)cc3)cc3c2cnn3C(C)C)c(=O)[nH]1`
10.8 µM

// fetch IC50 given entry `CCCc1cc(C)[nH]c(=O)c1CNC(=O)c1cc(-c2ccc(N3CCN(C(=O)C[C@@H]4N=C(c5ccc(Cl)cc5)c5c(sc(C)c5C)-n5c(C)nnc54)CC3)nc2)cc2c1cnn2C(C)C`
> 20 µM

Entry CCC(C)n1ncc2c(C(=O)NCc3c(C)cc(C)[nH]c3=O)cc(-c3ccc(N4CCN(C(=O)C[C@@H]5N=C(c6ccc(Cl)cc6)c6c(sc(C)c6C)-n6c(C)nnc65)CC4)nc3)cc21 (some centres undefined) needs its IC50 filled in; supply it.
> 20 µM

State its IC50: `Cc1cc(C)c(CNC(=O)c2cc(NCCCCNC(=O)C[C@@H]3N=C(c4ccc(Cl)cc4)c4c(sc(C)c4C)-n4c(C)nnc43)cc3c2cnn3C(C)C)c(=O)[nH]1`
9.57 µM

Let me know recorded IC50 for `Cc1cc(C)c(CNC(=O)c2cc(NCCCCCCNC(=O)C[C@@H]3N=C(c4ccc(Cl)cc4)c4c(sc(C)c4C)-n4c(C)nnc43)cc3c2cnn3C(C)C)c(=O)[nH]1` , thanks.
4.99 µM

Report IC50 for `Cc1cc(C)c(CNC(=O)c2cc(-c3ccc(NC(=O)CCCCNC(=O)C[C@@H]4N=C(c5ccc(Cl)cc5)c5c(sc(C)c5C)-n5c(C)nnc54)cc3)cc3c2cnn3C(C)C)c(=O)[nH]1`
10.4 µM

Give a short answer stating reported IC50 for `Cc1cc(C)c(CNC(=O)c2cc(-c3ccc(N4CCN(C(C)C)CC4)nc3)cc3c2cnn3C(C)C)c(=O)[nH]1` .
15.1 µM

Please supply the value of reported IC50 for the item `Cc1cc(C)c(CNC(=O)c2cc(-c3ccc(NC(=O)CCCNC(=O)C[C@@H]4N=C(c5ccc(Cl)cc5)c5c(sc(C)c5C)-n5c(C)nnc54)cc3)cc3c2cnn3C(C)C)c(=O)[nH]1`
> 20 µM

Supply reported IC50 belonging to this compound: `Cc1cc(C)c(CNC(=O)c2cc(-c3ccc(N4CCN(C(=O)C[C@@H]5N=C(c6ccc(Cl)cc6)c6c(sc(C)c6C)-n6c(C)nnc65)CC4)nc3)cc3c2cnn3C(C)C)c(=O)[nH]1`
3.4 µM

Find the measured IC50 of `Cc1cc(C)c(CNC(=O)c2cc(-c3ccc(CNC(=O)C[C@@H]4N=C(c5ccc(Cl)cc5)c5c(sc(C)c5C)-n5c(C)nnc54)cc3)cc3c2cnn3C(C)C)c(=O)[nH]1` and report it.
12.2 µM

Report IC50, nothing else, for this compound: `CCn1ncc2c(C(=O)NCc3c(C)cc(C)[nH]c3=O)cc(-c3ccc(N4CCN(C(=O)C[C@@H]5N=C(c6ccc(Cl)cc6)c6c(sc(C)c6C)-n6c(C)nnc65)CC4)nc3)cc21`
3.51 µM

Hello, please tell me recorded IC50 for this one: `Cc1cc(C)c(CNC(=O)c2cc(-c3ccc(NC(=O)CCNC(=O)C[C@@H]4N=C(c5ccc(Cl)cc5)c5c(sc(C)c5C)-n5c(C)nnc54)cc3)cc3c2cnn3C(C)C)c(=O)[nH]1`
> 20 µM

Provide one value: measured IC50 of `Cc1sc2c(c1C)C(c1ccc(Cl)cc1)=N[C@@H](CC(=O)OC(C)(C)C)c1nnc(C)n1-2`
3.89 µM

Specify IC50 for `Cc1cc(C)c(CNC(=O)c2cc(NCCCCCNC(=O)C[C@@H]3N=C(c4ccc(Cl)cc4)c4c(sc(C)c4C)-n4c(C)nnc43)cc3c2cnn3C(C)C)c(=O)[nH]1` and stop.
3.97 µM

Answer with the recorded IC50 of `Cc1cc(C)c(CNC(=O)c2cc(N3CCC4(CCN(C(=O)C[C@@H]5N=C(c6ccc(Cl)cc6)c6c(sc(C)c6C)-n6c(C)nnc65)C4)CC3)cc3c2cnn3C(C)C)c(=O)[nH]1` only.
3.64 µM

Return the recorded IC50 value; entry: `Cc1cc(C)c(CNC(=O)c2cc(NC3CCN(C(=O)C[C@@H]4N=C(c5ccc(Cl)cc5)c5c(sc(C)c5C)-n5c(C)nnc54)CC3)cc3c2cnn3C(C)C)c(=O)[nH]1`
3.91 µM

Look up and report measured IC50 for this entry: `Cc1cc(C)c(CNC(=O)c2cc(-c3ccc(N4CCN(C(=O)C[C@@H]5N=C(c6ccc(Cl)cc6)c6c(sc(C)c6C)-n6c(C)nnc65)CC4)cc3)cc3c2cnn3C(C)C)c(=O)[nH]1`
> 20 µM

Values compiled from ChEMBL document CHEMBL5325470.
